Hi there, I'd appreciate the recorded pIC50 for every entry that follows.
# test_method_notes: Inhibition of alpha-glucosidase activity
# Set-up: species or system Saccharomyces cerevisiae
Interpret pIC50 as the negative base-10 log of the concentration measured in mol/L.

QUERY: Bench note: what pIC50 did O=C(O)/C=C/c1ccc(O)cc1 show?
RESULT: 3.70

QUERY: Param item = COc1ccccc1/C=C/C(=O)O ; retrieve measured pIC50.
RESULT: 2.36

QUERY: Reported pIC50, compound COc1cccc(/C=C/C(=O)O)c1 : ____
RESULT: 3.24

QUERY: # get_value(readout='pIC50', item= COc1ccc(/C=C/C(=O)O)cc1 )
RESULT: 4.40

QUERY: Bench note: what pIC50 did O=C(O)/C=C/c1ccc(Oc2ccccc2)cc1 show?
RESULT: 3.36

QUERY: Using the record for OC[C@H]1NC[C@H](O)[C@@H](O)[C@@H]1O , report its pIC50.
RESULT: 2.25

QUERY: What does the data say about its pIC50? Entry: O=C(O)/C=C/c1ccc(Cl)cc1
RESULT: 3.41

QUERY: Query: pIC50; subject: O=C(O)/C=C/c1cccc(O)c1
RESULT: 2.90

QUERY: Item O=C(O)/C=C/c1ccc(F)cc1 has what recorded pIC50?
RESULT: 3.57

QUERY: Field request: pIC50 | item: CCOC(=O)/C=C/c1ccc(OC)cc1 [4-METHOXY ETHYL CINNAMATE]
RESULT: 4.30

Data provenance is ChEMBL document CHEMBL1146762.
